Biological target: NfMCU (mitochondrial calcium uniporter ortholog) (Aspergillus fischeri)
Sequence (A1CWT6 76-488): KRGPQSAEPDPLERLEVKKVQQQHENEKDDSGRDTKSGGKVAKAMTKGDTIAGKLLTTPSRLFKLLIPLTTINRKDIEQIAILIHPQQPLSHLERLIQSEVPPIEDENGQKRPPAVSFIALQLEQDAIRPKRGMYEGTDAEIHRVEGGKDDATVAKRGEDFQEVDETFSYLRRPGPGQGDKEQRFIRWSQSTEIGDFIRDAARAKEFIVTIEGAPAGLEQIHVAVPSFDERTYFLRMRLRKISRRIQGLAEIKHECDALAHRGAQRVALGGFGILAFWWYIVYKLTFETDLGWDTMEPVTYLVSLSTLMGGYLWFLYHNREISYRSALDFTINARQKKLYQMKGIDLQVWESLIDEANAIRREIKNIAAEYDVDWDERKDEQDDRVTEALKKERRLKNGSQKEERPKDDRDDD
Test: […] flux block in proteoliposomes of purified NfMCU
endpoint: pIC50
Answers are plain numbers, as −log10 of the molar value.

Ask: Return pIC50 for the following compound: "[NH2][Ru-3]([NH2])([NH2])([NH3+])([O]C=O)[O][Ru-2]([NH3+])([NH3+])([NH3+])([NH3+])[O]C=O"
Reply: 6.30
